System: Pseudomonas aeruginosa
experiment notes: Potentiation of imipenem-induced antibacterial activity against carbapenem-resistant Pseudomonas aeruginosa 101885 clinical isolate assessed as imipenem MIC at 8 uM by checkerboard assay (reference value: 4 ug/ml)
Type: functional
observation type: MIC (µg/mL)

structure as smiles	unit abbrev	recorded value
Cl.Cl.Cl.Cl.Cl.NC[C@H]1O[C@H](O[C@H]2[C@H](OCCCCCCCCCCCCN3CCN(c4cc5c(cc4F)c(=O)c(C(=O)O)cn5C4CC4)CC3)[C@@H](O)[C@H](N)C[C@@H]2N)[C@H](N)C[C@@H]1O	µg/mL	2
NC[C@H]1O[C@H](O[C@H]2[C@H](OCCCCCCCCN3CCCNCCNCCCNCC3)[C@@H](O[C@H]3O[C@H](CO)[C@@H](O)[C@H](N)[C@H]3O)[C@H](N)C[C@@H]2N)[C@H](N)C[C@@H]1O.O=C(O)C(F)(F)F.O=C(O)C(F)(F)F.O=C(O)C(F)(F)F.O=C(O)C(F)(F)F.O=C(O)C(F)(F)F.O=C(O)C(F)(F)F.O=C(O)C(F)(F)F.O=C(O)C(F)(F)F.O=C(O)C(F)(F)F	µg/mL	2
Cl.Cl.Cl.Cl.Cl.Cl.NC[C@H]1O[C@H](O[C@H]2[C@H](OCCCCCCCCCCCCN3CCN(c4cc5c(cc4F)c(=O)c(C(=O)O)cn5C4CC4)CC3)[C@@H](O[C@H]3O[C@H](CO)[C@@H](O)[C@H](N)[C@H]3O)[C@H](N)C[C@@H]2N)[C@H](N)C[C@@H]1O	µg/mL	2
